Data origin, for the record: paper PMC7196632

- system.name: AbNadE2 (AbNadE2^Gln) (Azospirillum baldaniorum, UniProt A0A9P1JPD2)
- Construct: full-length, untagged ('native AbNadE2'), recombinant from E. coli, purified as described previously; homodimer
- Sequence (A0A9P1JPD2 1-554): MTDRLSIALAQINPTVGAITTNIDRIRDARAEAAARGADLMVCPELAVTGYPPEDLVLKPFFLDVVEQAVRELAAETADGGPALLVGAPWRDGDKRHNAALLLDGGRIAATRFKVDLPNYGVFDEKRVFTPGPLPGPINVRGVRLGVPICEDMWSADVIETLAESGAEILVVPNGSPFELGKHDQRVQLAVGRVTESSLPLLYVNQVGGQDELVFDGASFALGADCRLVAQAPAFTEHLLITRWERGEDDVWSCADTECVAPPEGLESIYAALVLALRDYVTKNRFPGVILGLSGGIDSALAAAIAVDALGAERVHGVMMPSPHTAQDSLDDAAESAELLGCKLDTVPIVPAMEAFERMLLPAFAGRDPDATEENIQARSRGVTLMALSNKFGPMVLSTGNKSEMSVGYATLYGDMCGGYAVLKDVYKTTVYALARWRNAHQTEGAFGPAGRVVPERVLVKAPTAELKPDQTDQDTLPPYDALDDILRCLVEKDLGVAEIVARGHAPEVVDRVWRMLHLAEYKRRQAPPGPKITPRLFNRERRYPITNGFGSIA
- experiment: discontinuous assay of PPi release (EnzChek pyrophosphate kit)
- cond: read-out: IC50 (also called Ki)
test.readout: IC50 (µM)
The figure you give is taken to be in µM; do not add the unit.

Reported IC50 for NC(=O)c1ccc[n+]([C@@H]2O[C@H](COP(=O)([O-])OP(=O)(O)OC[C@H]3O[C@@H](n4cnc5c(N)ncnc54)[C@H](O)[C@@H]3O)[C@@H](O)[C@H]2O)c1 was 1000
